Tgt: Delta-type opioid receptor (Rattus norvegicus, UniProt P33533)
Sequence (P33533 whole entry): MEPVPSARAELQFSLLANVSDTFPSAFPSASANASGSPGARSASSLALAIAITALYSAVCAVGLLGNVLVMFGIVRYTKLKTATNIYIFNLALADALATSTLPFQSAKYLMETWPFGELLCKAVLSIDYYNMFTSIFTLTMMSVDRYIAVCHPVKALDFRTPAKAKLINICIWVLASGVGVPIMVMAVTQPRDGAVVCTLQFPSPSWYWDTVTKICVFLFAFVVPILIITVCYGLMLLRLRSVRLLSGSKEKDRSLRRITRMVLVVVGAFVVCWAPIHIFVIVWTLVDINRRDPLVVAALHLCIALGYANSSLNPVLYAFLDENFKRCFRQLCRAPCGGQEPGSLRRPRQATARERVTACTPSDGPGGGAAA
Method summary: Displacement of [3H]Ile5,6deltorphin-2 from delta opioid receptor in Wistar rat brain
Measured endpoint: pKi
Convention used: pKi is expressed as -log10 of the molar concentration.

// known answers, use as guide
NC(=O)[C@H](Cc1ccccc1)NC(=O)[C@H](Cc1c[nH]c2ccccc12)NC(=O)[C@H]1CCC[C@@H]1NC(=O)[C@@H](N)Cc1ccc(O)cc1 : 5.51
NC(=O)[C@H](Cc1ccccc1)NC(=O)[C@H](Cc1c[nH]c2ccccc12)NC(=O)[C@@H]1CCC[C@H]1NC(=O)[C@@H](N)Cc1ccc(O)cc1 : 6.17

Consider the additional compound presented here.
Memo: NC(=O)[C@H](Cc1ccccc1)NC(=O)[C@H](Cc1ccccc1)NC(=O)[C@H]1CCC[C@@H]1NC(=O)[C@@H](N)Cc1ccc(O)cc1 , reported pKi: 5.37

---

Tgt: Delta-type opioid receptor (Rattus norvegicus, UniProt P33533)
Method summary: Displacement of [3H]Ile5,6deltorphin-2 from delta opioid receptor in Wistar rat brain
Measured endpoint: log10 of Ki (log10 of the value in µM)
The figures below represent log10 of Ki, where Ki is stated in µM.

// known answers, use as guide
NC(=O)[C@H](Cc1ccccc1)NC(=O)[C@H](Cc1ccccc1)NC(=O)[C@H]1CCC[C@H]1NC(=O)[C@@H](N)Cc1ccc(O)cc1 : 0.68
NC(=O)[C@H](Cc1ccccc1)NC(=O)[C@H](Cc1c[nH]c2ccccc12)NC(=O)[C@H]1CCC[C@H]1NC(=O)[C@@H](N)Cc1ccc(O)cc1 : 0.13
NC(=O)[C@H](Cc1ccccc1)NC(=O)[C@H](Cc1ccccc1)NC(=O)[C@H]1CCCC[C@H]1NC(=O)[C@@H](N)Cc1ccc(O)cc1 : -0.09

Memo: NC(=O)[C@H](Cc1ccccc1)NC(=O)[C@H](Cc1ccccc1)NC(=O)[C@@H]1CCC[C@H]1NC(=O)[C@@H](N)Cc1ccc(O)cc1 , reported log10 of Ki: 0.15

Memo: NC(=O)[C@H](Cc1ccccc1)NC(=O)[C@H](Cc1ccccc1)NC(=O)[C@@H]1CCCC[C@H]1NC(=O)[C@@H](N)Cc1ccc(O)cc1 , reported log10 of Ki: -0.36

Memo: NC(=O)[C@H](Cc1ccccc1)NC(=O)[C@H](Cc1c[nH]c2ccccc12)NC(=O)[C@H]1CCCC[C@H]1NC(=O)[C@@H](N)Cc1ccc(O)cc1 , reported log10 of Ki: 0.44

Memo: NC(=O)[C@H](Cc1ccccc1)NC(=O)[C@H](Cc1c[nH]c2ccccc12)NC(=O)[C@H]1CCCC[C@@H]1NC(=O)[C@@H](N)Cc1ccc(O)cc1 , reported log10 of Ki: 0.98
